# pEC50 listing for each entry below
target: human MC4R (Homo sapiens, UniProt P32245); construct: host or cells: HEK-293 cells stably expressing the GScAMP22F split-luciferase cAMP sensor and hMC4R, G418 selection; assay: split-luciferase cAMP sensor assay, agonist mode (measurement window 1), hMC4R; assay type: cell-based; conditions: HEK-293 cells stably expressing hMC4R, agonist mode; read-out: MC4R cAMP EC50
Sequence (P32245 whole entry): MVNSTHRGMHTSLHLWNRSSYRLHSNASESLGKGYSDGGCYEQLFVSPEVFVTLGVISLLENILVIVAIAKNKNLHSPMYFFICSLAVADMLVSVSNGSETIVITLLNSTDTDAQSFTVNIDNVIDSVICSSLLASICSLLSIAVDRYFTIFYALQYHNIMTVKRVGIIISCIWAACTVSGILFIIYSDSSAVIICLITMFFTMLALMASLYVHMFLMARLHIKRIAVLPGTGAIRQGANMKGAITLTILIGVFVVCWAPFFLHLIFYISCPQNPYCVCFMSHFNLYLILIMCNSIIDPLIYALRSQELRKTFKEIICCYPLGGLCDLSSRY
Positions of bridges follow the written chain, without caps; N, C: chain ends. Non-standard residues stand in square brackets, D forms with d. Residues, ends and D or L forms follow the SMILES beside them. 2Pal = N[C@@H](Cc1ccccn1)C(=O)O; Nle = CCCC[C@H](N)C(=O)O; Aib = CC(C)(N)C(=O)O
In simple prose, pEC50 is minus the logarithm base ten of a concentration in moles per litre.

Please review the entries below; each comes with its answer.
Compound	Tested on	pEC50
CCCC[C@H](NC(=O)[C@H](CCCNC(=N)N)NC(C)=O)C(=O)N[C@H]1CSSC[C@@H](C(N)=O)NC(=O)[C@@H](Cc2c[nH]c3ccccc23)NC(=O)[C@H](CCCNC(=N)N)NC(=O)[C@@H](Cc2ccccc2)NC(=O)[C@H](CCCNC(=N)N)NC1=O [CTX-1616] (Ac-R[Nle]CR[dF]R[dW]C-NH2; disulfide 3-8)	human MC4R (Homo sapiens, UniProt P32245)	7.80
CC1(C)NC(=O)CSC[C@@H](C(N)=O)NC(=O)[C@H](Cc2ccccc2)NC(=O)[C@H](CCCNC(=N)N)NC(=O)[C@@H](Cc2ccccc2)NC(=O)[C@H](Cc2c[nH]cn2)NC1=O [CTX-1650] ({CH2CO}-[Aib]H[dF]RFC-NH2; thioether N-6)	human MC4R (Homo sapiens, UniProt P32245)	6.54
CCCC[C@H](NC(=O)[C@H](CCCNC(=N)N)NC(C)=O)C(=O)N[C@H]1CSSC[C@@H](C(N)=O)NC(=O)[C@H](Cc2c[nH]c3ccccc23)NC(=O)[C@H](CCCNC(=N)N)NC(=O)[C@@H](Cc2ccccc2)NC(=O)[C@H](Cc2ccccn2)NC1=O [CTX-1619] (Ac-R[Nle]C[2Pal][dF]RWC-NH2; disulfide 3-8 (inferred))	human MC4R (Homo sapiens, UniProt P32245)	8.59

Kindly review the next compound as well.
Quote pEC50 with test system human MC4R (Homo sapiens, UniProt P32245) for C[C@H]1NC(=O)CSC[C@@H](C(N)=O)NC(=O)[C@H](Cc2ccccc2)NC(=O)[C@H](CCCNC(=N)N)NC(=O)[C@@H](Cc2ccccc2)NC(=O)[C@H](Cc2c[nH]cn2)NC1=O [CTX-1656] ({CH2CO}-[dA]H[dF]RFC-NH2; thioether N-6)
5.85

Hey, just so you know, these numbers are from patent US20240391954A1.
